Origin of measurements: the supplement of paper PMC7801607

system: Plasmodium falciparum NF54 stage IV/V gametocytes; experiment: % inhibition of gametocyte viability (luciferase reporter); higher = more inhibition; conditions: 5 µM; 48 h
Listing of recorded % inhibition of gametocyte viability by entry.

Below, 3 molecules whose answers are already recorded.
>>> experimental_result("CN(C)CCCOc1ccc(-c2ccc3ncc4c(c3c2)n(C2CCOCC2)c(=O)n4C)cn1")
"92%"
>>> experimental_result("Cc1cc(CCCOc2c(C)cc(-c3noc(C(F)(F)F)n3)cc2C)on1")
"< 0%"
>>> experimental_result("CC(C)(C)NC(=O)[C@@H]1C[C@@H]2CCCC[C@@H]2CN1C[C@@H](O)[C@H](Cc1ccccc1)NC(=O)[C@H](CC(N)=O)NC(=O)c1ccc2ccccc2n1")
"< 0%"

Please examine the following record next.
Consider the molecule `Cc1onc(-c2ccccc2)c1-c1ccc(S(N)(=O)=O)cc1` . State its measured % inhibition of gametocyte viability.
< 0%

====

tested on: Plasmodium falciparum NF54 asexual blood stage; test: % inhibition of asexual blood stage proliferation (pLDH); higher = more inhibition; conditions: 20 µM; 72 h
Lab note: compare % inhibition of asexual blood stage proliferation against 70%. Equal or greater, write true. Smaller, write false.

>>> category("Cc1nc2ccc(Cl)cc2c(-c2ccccc2)c1CC(=O)O")
"false"
>>> category("COc1cc(Cc2cnc(N)nc2N)cc(OC)c1OC")
"false"
>>> category("Cc1nc(Nc2ccc(F)cc2)nc(N2CCc3ccccc3C2C)c1C (stereo not drawn)")
"true"
>>> category("O=C(Nc1ccc(-c2ccccc2)cc1)C1=C(O)C(Cc2ccccc2)OC1=O (stereo not drawn)")
"true"

API: above_or_equal(metric=% inhibition of asexual blood stage proliferation, cutoff=70%) for item `[N-]=[N+]=N[C@H]1C[C@H](n2ccc(=O)[nH]c2=O)O[C@@H]1CO`
false

API: above_or_equal(metric=% inhibition of asexual blood stage proliferation, cutoff=70%) for item `O=[N+]([O-])c1cn(Cc2nc(O)nc(O)c2Br)cn1`
false

API: above_or_equal(metric=% inhibition of asexual blood stage proliferation, cutoff=70%) for item `COc1ccccc1NC(=O)c1ccccc1Sc1ccc([N+](=O)[O-])cc1`
true

API: above_or_equal(metric=% inhibition of asexual blood stage proliferation, cutoff=70%) for item `CCc1cc(CCCOc2c(C)cc(-c3noc(C(F)(F)F)n3)cc2C)on1`
true

====

system: Plasmodium berghei ANKA liver stage in HepG2-A16-CD81; experiment: % inhibition of liver stage parasite viability (luciferase); higher = more inhibition; conditions: 5 µM; 48 h
Checkbox rule: % inhibition of liver stage parasite viability lower than 10% = Yes; % inhibition of liver stage parasite viability not lower than 10% = No.

Worked examples, 5 compounds total:
>>> category("CCOC(=O)/C=C/[C@H](C[C@@H]1CCNC1=O)NC(=O)[C@H](CC)n1cccc(NC(=O)c2cc(C)on2)c1=O")
"Yes"
>>> category("OC[C@@H]1CC[C@H](n2cnc3c(O)ncnc32)O1")
"No"
>>> category("O=C(Nc1[nH]c(=O)ncc1F)c1ccccc1")
"No"
>>> category("NC[C@H]1OB(O)c2c(OCCCO)cccc21")
"Yes"
>>> category("O=C(c1nc2c(C(F)(F)F)cc(C3CC3)cn2c1Cl)N1CCN([C@H]2CC[C@H](O)CC2)C(=O)C1")
"No"

Is 10% strictly greater than the compound's reported % inhibition of liver stage parasite viability? compound: `O=S(=O)(NCB(O)O)c1cc2c(Cl)ccc(Cl)c2s1`
Yes

Is 10% strictly greater than the compound's reported % inhibition of liver stage parasite viability? compound: `CCOCc1nc2c(N)nc3ccccc3c2n1CC(C)(C)O`
No

Is 10% strictly greater than the compound's reported % inhibition of liver stage parasite viability? compound: `CC1(C)Cc2c(C#N)c(SCCc3ccccc3)nc(N3CCOCC3)c2CO1`
No

Is 10% strictly greater than the compound's reported % inhibition of liver stage parasite viability? compound: `C=C(C)n1c(=O)n(Cc2ccccc2C)c2ccccc21`
No

Is 10% strictly greater than the compound's reported % inhibition of liver stage parasite viability? compound: `N#Cc1c(F)c(Cl)c(NCc2ccccc2)c(C#N)c1F`
No

Is 10% strictly greater than the compound's reported % inhibition of liver stage parasite viability? compound: `CC[C@@H](CO)NCCN[C@@H](CC)CO`
No

Is 10% strictly greater than the compound's reported % inhibition of liver stage parasite viability? compound: `CCc1nc2ccccn2c1C(=O)NCc1ccccc1`
No

Is 10% strictly greater than the compound's reported % inhibition of liver stage parasite viability? compound: `C[C@H]1CC[C@@]2(O)C(C)(C)[C@@H]3CC[C@@]2(C)[C@H]1C3`
No

Is 10% strictly greater than the compound's reported % inhibition of liver stage parasite viability? compound: `CCCCc1ccc(-c2nc(C)c(C(=O)OC)s2)cc1`
Yes

Is 10% strictly greater than the compound's reported % inhibition of liver stage parasite viability? compound: `Cc1[nH]c2ccccc2c1CC(=O)N[C@@H](Cc1ccccc1)C(=O)N(C)c1ccccc1`
Yes

====

Listing of recorded % inhibition of asexual blood stage proliferation by entry.
tested on: Plasmodium falciparum NF54 asexual blood stage; assay: % inhibition of asexual blood stage proliferation (pLDH); higher = more inhibition; details: 20 µM; 72 h
Give your result in % as a bare value.

Below, 3 compounds whose answers are already recorded.
>>> experimental_result("Nc1nc2c(ncn2/C=C2/CC2(CO)CO)c(=O)[nH]1")
5.03
>>> experimental_result("O=C(Nc1nnc(-c2ccc(Cl)cc2)o1)c1ccc(F)cc1")
-13.5
>>> experimental_result("Nc1cnn(C2OC(CO)C(O)C2O)c(=O)n1 (stereo not given)")
38.4

Report % inhibition of asexual blood stage proliferation on Plasmodium falciparum NF54 asexual blood stage for this entry: COc1ccc(COc2cc3oc(=O)c4cc(C(C)O)ccc4c3cc2OC)cc1 (stereo not given)
80.4

Report % inhibition of asexual blood stage proliferation on Plasmodium falciparum NF54 asexual blood stage for this entry: CC(=O)N1CCN(c2ccc(OCC3COC(Cn4ccnc4)(c4ccc(Cl)cc4Cl)O3)cc2)CC1 (stereo not given)
64.4

Report % inhibition of asexual blood stage proliferation on Plasmodium falciparum NF54 asexual blood stage for this entry: `Nc1nc(O)c(Br)c(-c2ccccc2)n1`
33.7

Report % inhibition of asexual blood stage proliferation on Plasmodium falciparum NF54 asexual blood stage for this entry: `CC(C)(C)c1cccc(-c2nc3cc(C(=N)N)ccc3[nH]2)c1O`
79.9

Report % inhibition of asexual blood stage proliferation on Plasmodium falciparum NF54 asexual blood stage for this entry: `OC(Cn1cncn1)(Cn1cncn1)c1ccc(F)cc1F`
-5.32

Report % inhibition of asexual blood stage proliferation on Plasmodium falciparum NF54 asexual blood stage for this entry: `C=C[C@]1(C)C[C@@H](OC(=O)CS[C@@H]2C[C@H]3CC[C@@H](C2)N3C)[C@]2(C)[C@H](C)CC[C@]3(CCC(=O)[C@H]32)[C@@H](C)[C@@H]1O`
104

Report % inhibition of asexual blood stage proliferation on Plasmodium falciparum NF54 asexual blood stage for this entry: `CCCCCCCCCN1C[C@@H](O)[C@H](O)[C@@H](O)[C@@H]1CO`
25.3

====

tested on: Plasmodium falciparum NF54 stage IV/V gametocytes; assay: % inhibition of gametocyte viability (PrestoBlue); higher = more inhibition; details: 1 µM; 48 h
assay endpoint: % inhibition of gametocyte viability

>>> experimental_result("OC(Cn1cncn1)(Cn1cncn1)c1ccc(F)cc1F")
"< 0%"
>>> experimental_result("CCCNc1ccc(S(=O)(=O)Nc2cc(C)on2)cc1")
"-0.214%"
>>> experimental_result("c1ccc(Cn2c(-c3ccccn3)nc3ccccc32)cc1")
"-0.335%"
>>> experimental_result("CCOc1noc2cc(OCCC3CCN(c4ccc(C)nn4)CC3)ccc12")
"16.1%"
>>> experimental_result("CC(C)(C)c1cc(CCC(=O)N2CCC2)cc(C(C)(C)C)c1O")
"< 0%"

Consider the molecule `CN1c2ccc(Cl)cc2N(c2ccccc2)C(=O)c2cn(Cc3ccc(CN4CCOCC4)cc3)nc21` . State its measured % inhibition of gametocyte viability.
18.2%

====

Listing of recorded % inhibition of HepG2 viability by entry.
test system: HepG2-A16-CD81; test: % inhibition of HepG2 viability (CellTiter-Glo); higher = more toxic; conditions: 5 µM
Give your result in % as a bare value.

Below, 4 compounds whose answers are already recorded.
>>> experimental_result("O=C(CP(=O)(O)O)NCCc1cccc(Oc2ccccc2)c1")
0.91
>>> experimental_result("CC(C)(C)c1cccc(-c2nc3cc(C(=N)N)ccc3[nH]2)c1O")
-1.3
>>> experimental_result("c1cc(CN2CCCNCCNCCCNCC2)ccc1CN1CCCNCCNCCCNCC1")
-0.261
>>> experimental_result("Cc1ncc([N+](=O)[O-])n1CC(C)O (stereo not given)")
7.14

Consider the compound `O=c1nc(N2CCN(CC3CCCCC3)CC2)sc2c([N+](=O)[O-])cc(C(F)(F)F)cc12` . State its measured % inhibition of HepG2 viability.
7.83

Consider the compound `Nc1cccc(-c2nc(N)nc(NC3Cc4ccccc4C3)n2)c1` . State its measured % inhibition of HepG2 viability.
12.8

Consider the compound O=C(NC1CCCc2c1[nH]c1ccc(Cl)cc21)c1ccccn1 (stereo not given) . State its measured % inhibition of HepG2 viability.
20.7

Consider the compound `CCc1nc2ccc(Cl)cn2c1C(=O)NCc1ccc(N2CCC(c3ccc(OC(F)(F)F)cc3)CC2)cc1` . State its measured % inhibition of HepG2 viability.
7.13

Consider the compound `COc1ccc(SC(=O)N[C@H](CCC(=O)O)C(=O)O)cc1` . State its measured % inhibition of HepG2 viability.
3.46

Consider the compound `Nc1nc(F)nc2c1ncn2[C@H]1O[C@@H](CO)[C@H](O)[C@@H]1O` . State its measured % inhibition of HepG2 viability.
77.8
